Listed here: items and their measured pIC50.
Assay Target: UniProt C3TDZ2
Sequence (C3TDZ2 whole entry): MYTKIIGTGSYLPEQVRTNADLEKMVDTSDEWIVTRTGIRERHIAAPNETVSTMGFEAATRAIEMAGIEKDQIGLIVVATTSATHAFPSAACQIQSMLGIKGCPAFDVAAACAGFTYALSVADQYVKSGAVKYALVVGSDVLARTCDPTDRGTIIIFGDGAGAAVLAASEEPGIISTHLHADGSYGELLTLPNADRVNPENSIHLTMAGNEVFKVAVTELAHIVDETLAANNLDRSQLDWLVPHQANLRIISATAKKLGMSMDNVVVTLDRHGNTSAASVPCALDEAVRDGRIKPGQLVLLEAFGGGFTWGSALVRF
Quick note: pIC50 values are minus log10 of concentrations in mol/L.

Here is how some molecules turned out for pIC50.
>>> assay_value("O=C(NCCNC(=O)c1ccccc1O)c1ccccc1O")
4.26
>>> assay_value("O=C(NCCCCCC/N=C/c1cc(Br)cc(Br)c1O)c1ccccc1O")
4.90
>>> assay_value("O=C(NCCCCCC/N=C/c1cc(I)cc(I)c1O)c1ccccc1O")
4.59
>>> assay_value("O=C(NCC/N=C/c1cc(I)cc(I)c1O)c1ccccc1O")
4.62
>>> assay_value("O=C(NCCCCCC/N=C/c1cc(I)ccc1O)c1ccccc1O")
4.24

Assign pIC50 to the following record: `O=C(NCCCCCC/N=C/c1cc(F)ccc1O)c1ccccc1O` 3.95

Assign pIC50 to the following record: `O=C(NCCCC/N=C/c1cc(Cl)ccc1O)c1ccccc1O` 5.17

Assign pIC50 to the following record: `O=C(NCC/N=C/c1cc(Cl)cc(Cl)c1O)c1ccccc1O` 5.15

The measured values listed here are drawn from ChEMBL document CHEMBL1153089.
